# System: RIVA
# PROTOCOL_DESCRIPTION: growth inhibition by drug plus 177Lu-lilotomab satetraxetan (1 - RLU/untreated control) (fraction); higher = stronger inhibition
# MEASUREMENT_SETUP: 100 nM; time (day): 6; 177Lu-lilotomab satetraxetan 0.5 ug/ml
Structures can show the parent of a compound that is named as a salt.
Label rule, in plain words: growth inhibition by drug plus 177Lu-lilotomab satetraxetan of 0.5 and up is MET, under 0.5 is NOT MET.

COMPOUND	TESTED_TARGET	ASSIGNED_CATEGORY
Cc1c(CCOc2ccc(C(=O)O)cc2)c2cc(Cl)ccc2n1C(c1ccccc1)c1ccccc1	RIVA	NOT MET
CC[C@H](CO)Nc1nc(NCc2ccccc2)c2ncn(C(C)C)c2n1 [Roscovitine (Seliciclib, CYC202)]	RIVA	MET
CCC(CC)CC1(C(=O)Nc2ccccc2SC(=O)C(C)C)CCCCC1	RIVA	NOT MET
CCN[C@H]1C[C@H](C)S(=O)(=O)c2sc(S(N)(=O)=O)cc21 [Dorzolamide HCL]	RIVA	NOT MET
C[N+](C)([O-])CCNc1ccc(NCC[N+](C)(C)[O-])c2c1C(=O)c1c(O)ccc(O)c1C2=O [Banoxantrone dihydrochloride]	RIVA	MET

Hello, I need to know if `OCCn1cc(-c2ccc3c(c2)CC/C3=N\O)c(-c2ccncc2)n1` has measured growth inhibition by drug plus 177Lu-lilotomab satetraxetan not below 0.5. Thanks!
MET

For `CC(C)C[C@H](NC(=O)CNC(=O)c1cc(Cl)ccc1Cl)B1OC(=O)C(CC(=O)O)(CC(=O)O)O1` then?
MET

# repeat for `C=CCn1c(=O)c2cnc(Nc3ccc(N4CCN(C)CC4)cc3)nc2n1-c1cccc(C(C)(C)O)n1`
NOT MET

// query: `c1ccc(-c2nn3c(c2-c2ccnc4cc(OCCN5CCOCC5)ccc24)CCC3)nc1`
NOT MET

What do you have for `CC(=O)Nc1nc(C)c(-c2ccc(Cl)c(S(=O)(=O)NCCO)c2)s1` ?
NOT MET

Field entry: O=C(CCc1ccc(O)cc1)c1c(O)cc(O)cc1O [Phloretin (Dihydronaringenin)]
MET

Another compound to look at: `CO[C@@H](C(=O)N1Cc2[nH]nc(NC(=O)c3ccc(N4CCN(C)CC4)cc3)c2C1)c1ccccc1`
MET

And then `COc1cc(Nc2ncc(F)c(Nc3ccc4c(n3)N(COP(=O)(O)O)C(=O)C(C)(C)O4)n2)cc(OC)c1OC` , what is it?
NOT MET
